- Test system: microorganisms
- test-details: Morphology, biofilm and growth disrupting peptides (Table 5)
- Assay type: cell-based
- Set-up: key: A: Peptide aggregates; B: Less hyphal formation; Clumps; Diffuse clumps and small polyps; F: Diffuse growth; H: Thin; I: Growth inhibition; Microcolony formation; Rippled; Small polyps; Thick; W: Halo formation on top, microlonies on bottom
- condition-description: S. epidermidis
readout-type: Organism, effect

Take a look at these entries with their results.
* GSVIKKRRKRMAKKKHRKLLKKTRIQRRRAGK [PF-527] | S. epidermidis (M)
* PF-534 (KYFHLFYHNIIHYSKQHLSLKVDFKN; Peptide with targeting and/or antimicrobial activity) | S. epidermidis (C)
* PF-453: peptide having multiple activities (IIQDIAHAFGY; Peptide with targeting and/or antimicrobial activity) | S. epidermidis (C)
* PF-592: peptide having multiple activities (chain 1 IMKNYKYFKLFIVKYALF; chain 2 IMKNYKYFKLFIVKYALF; Peptide with targeting and/or antimicrobial activity) | S. epidermidis (M)

Next, consider the following substance.
Request: Any idea what Organism, effect was measured for PF-623: peptide having multiple activities (chain 1 VLFAVYLGALDWLFSWLTQKM; chain 2 VLFAVYLGALDWLFSWLTQKM; Peptide with targeting and/or antimicrobial activity) ?
Response: S. epidermidis (M)
